Tested on: 624824-186-R-J3-PDC multicell spheroids, viability
Assay text: Anticancer human tumor 624824-186-R-J3-PDC patient-derived colon adenocarcinoma cell line growth inhibition [PI3K]
Experimental context: curve of first compound; second compound 10 µM
pIC50: −log10 of the molar value.
Experimental endpoint: pIC50

# example entries with known answers
Cn1ncc(Cl)c1-c1cc(C(=O)NC(CN)Cc2cccc(F)c2)sc1Cl (stereo not drawn) + Cc1nc(NC(=O)N2CCCC2C(N)=O)sc1-c1ccnc(C(C)(C)C(F)(F)F)c1
6.03
CC(=O)c1c(C)c2cnc(Nc3ccc(N4CCNCC4)cn3)nc2n(C2CCCC2)c1=O + Cc1nc(NC(=O)N2CCCC2C(N)=O)sc1-c1ccnc(C(C)(C)C(F)(F)F)c1
7.19
CC(C)n1nc(-c2ccc3oc(N)nc3c2)c2c(N)ncnc21 + Cc1nc(NC(=O)N2CCCC2C(N)=O)sc1-c1ccnc(C(C)(C)C(F)(F)F)c1
7.81
Cn1nccc1Nc1nccc(-c2ccn(C(CO)c3ccc(Cl)c(F)c3)c(=O)c2)n1 (stereo not drawn) + Cc1nc(NC(=O)N2CCCC2C(N)=O)sc1-c1ccnc(C(C)(C)C(F)(F)F)c1
7.00

[P] CC1(C)CCC(CN2CCN(c3ccc(C(=O)NS(=O)(=O)c4ccc(NCC5CCOCC5)c([N+](=O)[O-])c4)c(Oc4cnc5[nH]ccc5c4)c3)CC2)=C(c2ccc(Cl)cc2)C1 + Cc1nc(NC(=O)N2CCCC2C(N)=O)sc1-c1ccnc(C(C)(C)C(F)(F)F)c1
[Q] Cn1cnc2c(F)c(Nc3ccc(Br)cc3Cl)c(C(=O)NOCCO)cc21 + Cc1nc(NC(=O)N2CCCC2C(N)=O)sc1-c1ccnc(C(C)(C)C(F)(F)F)c1
Identify the item whose pIC50 is the smaller number: P or Q Label of pick, please. P
(P: 5.28, Q: 7.83)

====

Test system: 624824-186-R-J3-PDC multicell spheroids, viability
Assay text: Anticancer human tumor 624824-186-R-J3-PDC cell line growth inhibition [PI3K];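 note: spheroids exposed to agents for seven days before luminescence read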
Experimental context: second compound 0.316 µM; first compound 0.0316 µM; stronger effect = lower value
Experimental endpoint: viability, T/C (%)
Enter your answer as a number in %; do not include the unit.

Use the examples below as a reference point.
CNC(=O)c1ccc(N2C(=S)N(c3ccc(C#N)c(C(F)(F)F)c3)C(=O)C2(C)C)cc1F + Cc1nc(NC(=O)N2CCCC2C(N)=O)sc1-c1ccnc(C(C)(C)C(F)(F)F)c1
107
CC(=O)c1c(C)c2cnc(Nc3ccc(N4CCNCC4)cn3)nc2n(C2CCCC2)c1=O + Cc1nc(NC(=O)N2CCCC2C(N)=O)sc1-c1ccnc(C(C)(C)C(F)(F)F)c1
104
CCCS(=O)(=O)Nc1ccc(F)c(C(=O)c2c[nH]c3ncc(-c4ccc(Cl)cc4)cc23)c1F + COc1c(OCCCN2CCOCC2)ccc2c3n(c(=NC(=O)c4cnc(N)nc4)nc12)CCN3
44
C#Cc1c(F)ccc2cc(O)cc(-c3ncc4c(N5CC6CCC(C5)N6)nc(OCC56CCCN5CC(F)C6)nc4c3F)c12 (stereo unspecified) + CC(Nc1ccc2c(c1)OCCn1cc(N3C(=O)OCC3C(F)F)nc1-2)C(N)=O
95.9
CC(C)n1nc(-c2ccc3oc(N)nc3c2)c2c(N)ncnc21 + CC(Nc1ccc2c(c1)OCCn1cc(N3C(=O)OCC3C(F)F)nc1-2)C(N)=O
83

Please find the next compound below.
Under 624824-186-R-J3-PDC multicell spheroids, viability: viability, T/C value of CC1(C)CCC(CN2CCN(c3ccc(C(=O)NS(=O)(=O)c4ccc(NCC5CCOCC5)c([N+](=O)[O-])c4)c(Oc4cnc5[nH]ccc5c4)c3)CC2)=C(c2ccc(Cl)cc2)C1 + COc1c(OCCCN2CCOCC2)ccc2c3n(c(=NC(=O)c4cnc(N)nc4)nc12)CCN3 ? 50.7

====

Tested on: 624824-186-R-J3-PDC multicell spheroids, viability
Assay text: Anticancer human tumor 624824-186-R-J3-PDC cell line growth inhibition [PI3K];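 note: spheroids exposed to agents for seven days before luminescence read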;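 for viability, T/C: luminescent signal used as a stand-in for spheroid viability; percent viability relative to DMSO vehicle control wells taken as 100%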
Experimental context: second compound 10 µM; first compound 3.16 µM; stronger effect = lower value
Experimental endpoint: viability, T/C (%)
Hi! Could you send only the number? It should be in %, unit omitted.

CC(C)NCC(C(=O)N1CCN(c2ncnc3c2C(C)CC3O)CC1)c1ccc(Cl)cc1 (stereo not given) + Cc1nc(NC(=O)N2CCCC2C(N)=O)sc1-c1ccnc(C(C)(C)C(F)(F)F)c1
41.2
CC1(C)CCC(Nc2ncc(C(F)(F)F)c(-c3c[nH]c4c(P(C)(C)=O)c(C#N)ccc34)n2)CN1 (stereo not given) + CC(Nc1ncnc2nc[nH]c12)c1cc2cccc(Cl)c2c(=O)n1-c1ccccc1
57
CC(C)NCC(C(=O)N1CCN(c2ncnc3c2C(C)CC3O)CC1)c1ccc(Cl)cc1 (stereo not given) + CC(Nc1ncnc2nc[nH]c12)c1cc2cccc(Cl)c2c(=O)n1-c1ccccc1
56
CNC(=O)c1ccc(N2C(=S)N(c3ccc(C#N)c(C(F)(F)F)c3)C(=O)C2(C)C)cc1F + Cc1nc(NC(=O)N2CCCC2C(N)=O)sc1-c1ccnc(C(C)(C)C(F)(F)F)c1
73.8

Pending compound:
Name the recorded viability, T/C for Cn1nccc1Nc1nccc(-c2ccn(C(CO)c3ccc(Cl)c(F)c3)c(=O)c2)n1 (stereo not given) + Cc1nc(NC(=O)N2CCCC2C(N)=O)sc1-c1ccnc(C(C)(C)C(F)(F)F)c1 . 10.9

====

Tested on: 624824-186-R-J3-PDC multicell spheroids, viability
Assay text: Anticancer human tumor 624824-186-R-J3-PDC cell line growth inhibition [PI3K];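 note: spheroids exposed to agents for seven days before luminescence read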;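 for viability, T/C: luminescent signal used as a stand-in for spheroid viability; percent viability relative to DMSO vehicle control wells taken as 100%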
Experimental context: second compound 0.00316 µM; first compound 3.16 µM; stronger effect = lower value
Listed below: viability, T/C values for each entry.
Note: unit % is implicit; provide only the numeric part.

Example entries and their recorded answers appear below.
CNC(=O)c1ccc(N2C(=S)N(c3ccc(C#N)c(C(F)(F)F)c3)C(=O)C2(C)C)cc1F + COc1c(OCCCN2CCOCC2)ccc2c3n(c(=NC(=O)c4cnc(N)nc4)nc12)CCN3
105
Cn1ncc(Cl)c1-c1cc(C(=O)NC(CN)Cc2cccc(F)c2)sc1Cl (stereo not drawn) + CC(Nc1ccc2c(c1)OCCn1cc(N3C(=O)OCC3C(F)F)nc1-2)C(N)=O
55.4

Provide value of viability, T/C for this record tested with 624824-186-R-J3-PDC multicell spheroids, viability: CC1(C)CCC(Nc2ncc(C(F)(F)F)c(-c3c[nH]c4c(P(C)(C)=O)c(C#N)ccc34)n2)CN1 (stereo not drawn) + CC(Nc1ccc2c(c1)OCCn1cc(N3C(=O)OCC3C(F)F)nc1-2)C(N)=O 85.5

====

Tested on: 624824-186-R-J3-PDC multicell spheroids, viability
Assay text: Anticancer human tumor 624824-186-R-J3-PDC cell line growth inhibition [PI3K];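 note: spheroids exposed to agents for seven days before luminescence read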;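 for viability, T/C: luminescent signal used as a stand-in for spheroid viability; percent viability relative to DMSO vehicle control wells taken as 100%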
Experimental context: second compound 3.16 µM; first compound 0.000316 µM; stronger effect = lower value
Experimental endpoint: viability, T/C (%)
Number only, in %; omit the unit.

CC(=O)c1c(C)c2cnc(Nc3ccc(N4CCNCC4)cn3)nc2n(C2CCCC2)c1=O + Cc1nc(NC(=O)N2CCCC2C(N)=O)sc1-c1ccnc(C(C)(C)C(F)(F)F)c1
85.7
Cn1ncnc1[C@H]1c2n[nH]c(=O)c3cc(F)cc(c23)N[C@@H]1c1ccc(F)cc1 + CC(Nc1ncnc2nc[nH]c12)c1cc2cccc(Cl)c2c(=O)n1-c1ccccc1
109
CC(C)n1nc(-c2ccc3oc(N)nc3c2)c2c(N)ncnc21 + CC(Nc1ncnc2nc[nH]c12)c1cc2cccc(Cl)c2c(=O)n1-c1ccccc1
105
CC(C)n1nc(-c2ccc3oc(N)nc3c2)c2c(N)ncnc21 + Cc1nc(NC(=O)N2CCCC2C(N)=O)sc1-c1ccnc(C(C)(C)C(F)(F)F)c1
87.3

Return reported viability, T/C; argument: CC(=O)c1c(C)c2cnc(Nc3ccc(N4CCNCC4)cn3)nc2n(C2CCCC2)c1=O + CC(Nc1ncnc2nc[nH]c12)c1cc2cccc(Cl)c2c(=O)n1-c1ccccc1 94.6

Which viability, T/C is reported for this compound? Cn1ncnc1[C@H]1c2n[nH]c(=O)c3cc(F)cc(c23)N[C@@H]1c1ccc(F)cc1 + Cc1nc(NC(=O)N2CCCC2C(N)=O)sc1-c1ccnc(C(C)(C)C(F)(F)F)c1 81

====

Test system: 624824-186-R-J3-PDC multicell spheroids, viability
Assay text: Anticancer human tumor 624824-186-R-J3-PDC cell line growth inhibition [PI3K];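 note: spheroids exposed to agents for seven days before luminescence read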;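 for viability, T/C: luminescent signal used as a stand-in for spheroid viability; percent viability relative to DMSO vehicle control wells taken as 100%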
Experimental context: second compound 0.0316 µM; first compound 0.000316 µM; stronger effect = lower value
Experimental endpoint: viability, T/C (%)
Expressed in %, but write only the number.

CC(C)n1nc(-c2ccc3oc(N)nc3c2)c2c(N)ncnc21 + CC(Nc1ncnc2nc[nH]c12)c1cc2cccc(Cl)c2c(=O)n1-c1ccccc1
97.5
Cn1ncnc1[C@H]1c2n[nH]c(=O)c3cc(F)cc(c23)N[C@@H]1c1ccc(F)cc1 + CC(Nc1ccc2c(c1)OCCn1cc(N3C(=O)OCC3C(F)F)nc1-2)C(N)=O
107
CC(=O)c1c(C)c2cnc(Nc3ccc(N4CCNCC4)cn3)nc2n(C2CCCC2)c1=O + Cc1nc(NC(=O)N2CCCC2C(N)=O)sc1-c1ccnc(C(C)(C)C(F)(F)F)c1
109
CC(C)n1nc(-c2ccc3oc(N)nc3c2)c2c(N)ncnc21 + CC(Nc1ccc2c(c1)OCCn1cc(N3C(=O)OCC3C(F)F)nc1-2)C(N)=O
105
CC(=O)c1c(C)c2cnc(Nc3ccc(N4CCNCC4)cn3)nc2n(C2CCCC2)c1=O + COc1c(OCCCN2CCOCC2)ccc2c3n(c(=NC(=O)c4cnc(N)nc4)nc12)CCN3
90.9

Now turn to the next molecule.
# get_value(readout= viability, T/C, system= 624824-186-R-J3-PDC multicell spheroids, viability) for Cn1ncnc1[C@H]1c2n[nH]c(=O)c3cc(F)cc(c23)N[C@@H]1c1ccc(F)cc1 + COc1c(OCCCN2CCOCC2)ccc2c3n(c(=NC(=O)c4cnc(N)nc4)nc12)CCN3 91.1

Data provenance is PubChem BioAssay AID1963977.
